B1: LINE1-mini (parent)
chain: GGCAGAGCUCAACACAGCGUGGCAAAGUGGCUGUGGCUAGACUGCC

- Variants of: B1
- experimental_protocol: self-cleavage, relative activity (ratio to wild type); higher = more cleavage; in vitro, sequencing; the parent is a self-cleaving ribozyme
Criterion: self-cleavage meeting or surpassing 0.1. Met: Fulfilled. Not met: Not fulfilled.

G2A G22C: Fulfilled
G5C C46U: Not fulfilled
C3G G35A: Fulfilled
G5A C13G: Not fulfilled
C18G A25G: Fulfilled
A14G G30C: Fulfilled
U20G U28A: Fulfilled
C23G G36C: Fulfilled
A6C U9G: Fulfilled
G36A A41C: Not fulfilled
A6U A14U: Fulfilled
C23G G33C: Not fulfilled
U34A C37U: Not fulfilled
C15G A39C: Not fulfilled
G30A G40U: Fulfilled
A24C C31A: Not fulfilled
G17A U43C: Not fulfilled
C8G A16U: Not fulfilled
C15U G40A: Fulfilled
A16C C45G: Not fulfilled
